biological target: BACE-1 enzyme (Homo sapiens); construct: purchased R & D Systems 931AS; experiment: BACE Fluorescence Resonance Energy Transfer (FRET) Assay; format: biochemical; conditions: pH 4-4.5, 30 min pre-incubation, about 1.5 hours reaction, asterisk = mean
Sequence (P56817 46-457 limits assumed): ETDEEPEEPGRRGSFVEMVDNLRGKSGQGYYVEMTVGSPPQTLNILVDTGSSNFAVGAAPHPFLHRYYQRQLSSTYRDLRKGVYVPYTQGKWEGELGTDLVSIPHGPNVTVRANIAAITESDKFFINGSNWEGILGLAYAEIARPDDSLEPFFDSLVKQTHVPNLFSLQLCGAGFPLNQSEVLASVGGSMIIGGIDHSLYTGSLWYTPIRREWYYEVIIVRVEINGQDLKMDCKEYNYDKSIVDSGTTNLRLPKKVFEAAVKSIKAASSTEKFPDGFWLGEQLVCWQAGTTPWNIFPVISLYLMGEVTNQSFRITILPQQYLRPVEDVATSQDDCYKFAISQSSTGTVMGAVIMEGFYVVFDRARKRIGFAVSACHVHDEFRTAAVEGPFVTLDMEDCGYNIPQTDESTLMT
metricName: IC50 (µM)
Please give a number only; it is taken to be in µM.

Worked cases, IC50 given:
O=C(Nc1nc2cc(-c3cccc(C(F)(F)F)c3)ccc2[nH]1)c1cn2nc(N3CCOCC3)ccc2n1 [Example 65] = 0.238
CNCCOc1ccc2nc(C(=O)Nc3nc4cc(-c5cccc(C(F)(F)F)c5)ccc4[nH]3)cn2n1 [Example 70] = 0.381
Cc1ccc2nc(C(=O)Nc3nc4cc(OCc5ccccc5)ccc4[nH]3)cn2n1 [Example 6] = 0.244

Continue with the next compound.
Query: Would you mind telling me what IC50 value was observed for O=C(Nc1nc2cc(-c3cccc(C(F)(F)F)c3)ccc2[nH]1)c1cn2nc(OCCN3CCNC3=O)ccc2n1 [Example 26] ?
Response: 0.222
